# assayed target: LecA (PA-IL) (Pseudomonas aeruginosa)
# Sequence (Q05097 2-122): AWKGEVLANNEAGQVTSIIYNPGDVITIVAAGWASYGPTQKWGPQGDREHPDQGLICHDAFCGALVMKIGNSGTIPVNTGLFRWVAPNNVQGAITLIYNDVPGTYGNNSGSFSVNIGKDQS
# assay: isothermal titration calorimetry; CPMG NMR competition with raffinose
# Assay type: binding
readout: Kd (µM)
Answer format: numeric, µM implied, no suffix.

**Q:** Could you please provide reported Kd for OC[C@H]1OC(O)[C@H](O)[C@@H](O)[C@H]1O (stereo partly shown) ? Thanks!
**A:** 47
